- assay.target: Serine/threonine-protein kinase PLK1 (Homo sapiens) (UniProt P53350)
- Sequence (P53350 whole entry, looked up): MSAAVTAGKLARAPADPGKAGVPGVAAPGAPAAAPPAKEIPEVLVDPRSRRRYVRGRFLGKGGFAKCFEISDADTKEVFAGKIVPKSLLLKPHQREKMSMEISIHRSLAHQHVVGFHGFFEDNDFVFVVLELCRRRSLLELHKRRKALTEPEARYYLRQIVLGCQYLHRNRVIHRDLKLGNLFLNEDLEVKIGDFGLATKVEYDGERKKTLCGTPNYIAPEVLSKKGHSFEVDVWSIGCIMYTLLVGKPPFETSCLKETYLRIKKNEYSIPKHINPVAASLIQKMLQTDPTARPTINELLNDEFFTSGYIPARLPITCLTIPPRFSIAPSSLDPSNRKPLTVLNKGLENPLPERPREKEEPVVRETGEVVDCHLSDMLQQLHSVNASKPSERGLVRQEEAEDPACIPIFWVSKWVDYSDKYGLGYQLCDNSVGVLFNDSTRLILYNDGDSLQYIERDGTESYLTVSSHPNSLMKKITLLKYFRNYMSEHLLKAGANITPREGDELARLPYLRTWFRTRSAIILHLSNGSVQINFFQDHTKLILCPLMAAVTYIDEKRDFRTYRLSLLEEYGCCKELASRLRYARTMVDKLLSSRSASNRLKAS
- assay.text: human PLK1 kinase inhibitors, primary screen, biochemical, TR-FRET (AID 619);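 further: 0% = DMSO max control and 100% = H-89 dihydrochloride min control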
- assay.context: recombinant PLK1 kinase, TR-FRET peptide phosphorylation; at 10 µM; hits give high values
In all, about 97,000 compounds went through this assay and about 520 (0.54%) were called active. This excerpt belongs to a sample that is enriched for actives.
parameter: inhibition (%)
// units = %; emit number, no label

Name the recorded inhibition for CCN(CC)Cc1cc(C(C)=O)ccc1O .
-5.02

Again, but for COc1nc(-c2ccc(Cl)cc2)ccc1-c1noc(-c2cccs2)n1
-90.7

Again, but for Cc1ccccc1-n1c(C)cc(/C=N/NC(=O)c2ccc(CN3CCOCC3)cc2)c1C
-16

Again, but for Cc1ccc(C(=O)NCCNS(=O)(=O)c2ccccc2)cc1
-5.51

Again, but for Cc1ccc(NC(=O)c2ccc(CSc3ncnc4nc[nH]c34)cc2)c(C)c1
27.2

Again, but for Cc1c(Cl)c([N+](=O)[O-])nn1Cc1ccc(C(=O)N/N=C\c2cc(Cl)ccc2O)o1
-11.3

Again, but for CCOc1[nH]n(-c2ccc(Cl)cc2)c(=O)c1C=Nc1ccc(O)cc1
-12.9

Again, but for O=C(c1cccc(F)c1)N1CCC(O)(c2cccnc2)CC1
-11.3

Again, but for COC(=O)c1ccc(CSc2nnc(NC(C)C)s2)cc1
-15

Again, but for COc1ccc(CC(=O)Nc2sc(Cc3ccccc3)c(C)c2C(N)=O)cc1
-12

Again, but for O=S(=O)(c1cnccc1N1CCN(/N=C/c2ccc(Br)cc2)CC1)N1CCCCC1
-2.5

----------
- assay.target: Serine/threonine-protein kinase PLK1 (Homo sapiens) (UniProt P53350)
- assay.text: human PLK1 kinase inhibitors, primary screen, biochemical, TR-FRET (AID 619);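 further: 0% = DMSO max control and 100% = H-89 dihydrochloride min control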
- assay.context: recombinant PLK1 kinase, TR-FRET peptide phosphorylation; at 10 µM; hits give high values
The whole screen tested about 97,000 compounds, of which about 520 (0.54%) were called active. This is one part of a sample in which actives are shown more often than they occur.
Would you please tag the item True when its inhibition is -10% or above, and False when it is below?

Decide: is the reported value of inhibition for CC1CCN(S(=O)(=O)c2ccc(S(=O)(=O)NCc3ccco3)cc2)CC1 equal to or greater than -10%?
True

Again, but for C=CCn1c(SCC(=O)c2c(N)n(C)c(=O)n(C)c2=O)nc2sc(CC)cc2c1=O
True

Again, but for CCN(CC)CCNc1ccc(Cl)cc1[N+](=O)[O-]
False

Again, but for CCNC(=S)N1CCN(C(=O)c2ccco2)CC1
False

Again, but for CC(C)C[C@@H](N)c1nnc(SCC(=O)c2ccc(Cl)cc2)o1
True

Again, but for CCCc1nnc(NC(=O)CN2C(=O)c3ccccc3S2(=O)=O)s1
False

Again, but for CCOc1ccc(S(=O)(=O)N2CCCCCC2)c2ccccc12
False

Again, but for CC(=O)c1cnn(-c2cc(Oc3ccc(F)cc3)ncn2)c1C
True

Again, but for CCN1CCN(C(=O)c2cc3cc4ccc(OC)cc4nc3s2)CC1
True

Again, but for O=C(CN1C(=O)c2ccccc2S1(=O)=O)N1CCc2ccccc21
False

Again, but for CCC(=O)NCCc1nc2ccccc2n1CC
False

Again, but for COc1cccc(/C=N/NC(=O)C(=O)N2CCCC2)c1
True

Again, but for Cc1ccc(C2=CSC3=NS(=O)(=O)CCN23)cc1C
False

Again, but for CCN1CCN(C(=O)C2(NC(=O)Nc3cccc(F)c3)CCCCC2)CC1
True
